- Tgt: T1, soluble IGF-1R (recombinant human IGF-1R extracellular domain, R&D Systems Cat. # 391-GR/CF) (human, UniProt P08069 31-935)
- T1 construct: extracellular domain; Bought protein; coated on plates (phage ELISA, TRF) or Eu-labelled (TR-FRET); also called sIGF-1R; rhIGF-1R
- Protocol notes: phage ELISA
Classify: TRUE when ratio over background is strictly less than 9 ratio; FALSE when ratio over background is not.

| Binder | Group |
| --- | --- |
| YRGMLVLGRISGGAGKAASERPARIGQKVSAVNFYDWFV (on phage) [A6L-0-E3-IR] | FALSE |
| VERSASSQDGNFYDWFVVQIR (on phage) [A6S-2-D1-IR] | FALSE |
| ASSASGFYELLQRLAGLGLEV (on phage) [20E2B-3-C4-IGFR] | FALSE |
| QAVQPGFHEEFYDWFVRQVSTGVGGG (on phage) [H2CA-4-H4-IGFR] | TRUE |
| DRDFCRFYERLTALVGGQVDGGWPC (on phage) [20C-3-F6-IGFR] | FALSE |
| FFYDCLAALLQGVARYHDLCAVEIT (on phage) [20C-4-C7-IGFR] | FALSE |
| VGYQGQGDENFYDWFIRQVSGRLGVQ (on phage) [H2CA-4-F5-IGFR] | FALSE |
| IQQELTFYDLLHRLVRSELGS (on phage) [20E2B-3-D2-IGFR] | FALSE |
| VGRASGFPENFYDWFGRQLSLQSGEQ (on phage) [M2CA-4-H6-IGFR] | FALSE |
| VATSQGFYSGLSELLQGGGNV (on phage) [20E2B-3-E12-IGFR] | TRUE |
| EGSGFYGYFFSLLGLQG (on phage) [NNRPγ-4-A9-IR] | FALSE |
| LRRQAPVEENFYDWFVRQVSGDRVGG (on phage) [H2CA-3-D7-IGFR] | TRUE |
| RAGSSDFHEDFYEWFVRQVSLSLKGK (on phage) [H2CA-2-B9-IGFR] | TRUE |
